From: patent US20150086555A1

Listed next: entries and their corresponding Trimeric HA Binding: RLU.
# targetSystem: recombinant soluble homotrimeric HA of A/swine/Ontario/01911-2/99 (H4N6) (Influenza A virus A/Swine/Ontario/01911-2/99 (H4N6))
# methodNotes: HA microarray, BCC supernatant
# conditions: remark: other sources report otherwise

Sample records with Trimeric HA Binding: RLU:
- TCN-563 (5237_B21) (antibody, V domains shown) VH: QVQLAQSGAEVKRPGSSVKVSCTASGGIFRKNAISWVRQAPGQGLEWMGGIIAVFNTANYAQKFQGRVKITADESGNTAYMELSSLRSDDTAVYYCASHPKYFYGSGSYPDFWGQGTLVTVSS VL: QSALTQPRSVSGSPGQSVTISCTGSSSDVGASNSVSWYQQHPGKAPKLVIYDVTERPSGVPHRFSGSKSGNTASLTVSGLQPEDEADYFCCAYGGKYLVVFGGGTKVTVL: 4500 RLU
- TCN-535 (5246_P19) (antibody, V domains shown) VH: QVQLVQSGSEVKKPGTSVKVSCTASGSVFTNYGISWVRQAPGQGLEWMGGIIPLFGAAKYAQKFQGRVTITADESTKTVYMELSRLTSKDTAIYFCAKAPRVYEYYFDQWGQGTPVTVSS VL: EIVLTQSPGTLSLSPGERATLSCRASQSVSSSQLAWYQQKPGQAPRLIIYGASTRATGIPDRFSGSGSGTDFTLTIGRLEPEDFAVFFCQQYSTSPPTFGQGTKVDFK: 5950 RLU

With those in mind, consider the next binder.
Qu. Please give the measured Trimeric HA Binding: RLU for this binder: TCN-527 (5086_C06) (antibody, V domains shown) VH: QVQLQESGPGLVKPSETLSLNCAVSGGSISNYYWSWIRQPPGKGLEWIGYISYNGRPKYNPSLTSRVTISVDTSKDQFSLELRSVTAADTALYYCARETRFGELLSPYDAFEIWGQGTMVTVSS VL: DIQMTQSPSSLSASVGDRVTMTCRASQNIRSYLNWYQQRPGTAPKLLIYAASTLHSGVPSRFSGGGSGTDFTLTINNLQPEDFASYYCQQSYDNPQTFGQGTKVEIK
Ans. 7690 RLU
